Cited source: ChEMBL document CHEMBL5500324

Assignment: determine reported IC50 for the given molecules.
tested on: MDA-MB-231; assay: Antiproliferative activity against human MDA-MB-231 cells assessed as reduction in cell viability incubated for 72 hrs by SRB assay; type: functional, cell-based; details: MDA-MB-231, 72 h
Answers are plain numbers, in µM.

Sample records with IC50:
COMPOUND STRUCTURE	UNIT TAG	IC50
CN1C[C@@H](c2c[nH]c3cc(Br)ccc23)NC[C@@H]1c1c[nH]c2cc(Br)ccc12	µM	3.8
CN1C[C@@H](c2c[nH]c3cc(Br)ccc23)N(C)C[C@@H]1c1c[nH]c2ccccc12	µM	7.5
CN1C[C@@H](c2c[nH]c3cc(Br)ccc23)NC[C@@H]1c1c[nH]c2ccccc12	µM	4.7

Request: Report measured IC50; entry is CN1C[C@@H](c2c[nH]c3cc(Br)ccc23)N(C)C[C@@H]1c1c[nH]c2cc(Br)ccc12
Result: 28

====

I'd appreciate it if you could supply EC50 values for the items below.
system: P388; experiment: Cytotoxicity against mouse P388 cells assessed as reduction in cell viability; assay type: functional; settings: read-out: ED50 (the source's name)
Note: state the figure and append the unit.

COMPOUND	EC50
CC(C)[C@]12SSSS[C@]3(C(=O)N1C)[C@@H](O)C1(c4c[nH]c5ccccc45)c4ccccc4N[C@@H]1N3C2=O (stereo partly specified)	0.056 µg/mL

Hi there! I need EC50 for each item below, if you can.
1. CC(C)[C@]12SSS[C@]3(C(=O)N1C)[C@@H](O)C1(c4c[nH]c5ccccc45)c4ccccc4N[C@@H]1N3C2=O (stereo partly specified)
2. CC(C)[C@]12SS[C@]3(C(=O)N1C)[C@@H](O)C1(c4c[nH]c5ccccc45)c4ccccc4N[C@@H]1N3C2=O (stereo partly specified)
3. CC(C)[C@]12SS[C@]3(C(=O)N1C)[C@@H](O)C1(C45c6ccccc6N[C@H]4N4C(=O)[C@@]6(CO)SSS[C@]4(C(=O)N6C)[C@H]5O)c4ccccc4N[C@@H]1N3C2=O (stereo partly specified)
4. CC(C)[C@]12SS[C@]3(C(=O)N1C)[C@@H](O)C1(C45c6ccccc6N[C@H]4N4C(=O)[C@@]6(CO)SSSS[C@]4(C(=O)N6C)[C@H]5O)c4ccccc4N[C@@H]1N3C2=O (stereo partly specified)

Result:
0.046 µg/mL
0.086 µg/mL
0.0024 µg/mL
0.00185 µg/mL

Request: Return reported EC50. Input compound: CC(C)[C@]12SS[C@]3(C(=O)N1C)[C@@H](O)C1(C45c6ccccc6N[C@H]4N4C(=O)[C@@]6(CO)SS[C@]4(C(=O)N6C)[C@H]5O)c4ccccc4N[C@@H]1N3C2=O (stereo partly specified)
Result: 0.00175 µg/mL

====

tested on: HL-60; assay: Cytotoxicity against human HL-60 cells assessed as reduction in cell growth incubated for 72 hrs by SRB assay; assay type: functional, cell-based; conditions: HL-60, 72 h
OBSERVABLE: IC50
// unit must come after the numeric part

Request: Provide IC50 value for the following molecule: C=CC(C)(C)[C@@]12C[C@@]3(OC)C(=O)N/C(=C/c4cn(C(C)(C)CC(C)=O)cn4)C(=O)N3[C@]1(C)Nc1ccccc12
Result: 36.6 µM

====

system: PANC-1; assay: Cytotoxicity against human PANC-1 cells assessed as reduction in cell viability; type: functional, cell-based
OBSERVABLE: pIC50
Numbers only, as −log10 of the molar value.

Request: Annotate the molecule COc1ccc([C@H]2SS[C@@]34C[C@]5(O)[C@H](Cl)C=C[C@@H](O)[C@@H]5ON3C(=O)[C@@H]2NC4=O)c(O)c1OC with its measured pIC50.
Result: 7.70

====

test system: HepG2; test: Cytotoxicity against human HepG2 cells assessed as reduction in cell growth incubated for 48 hrs by CCK-8 assay; assay type: functional, cell-based; details: HepG2, 48 h
OBSERVABLE: pIC50
Give bare numbers, as −log10 of the molar value.

Request: Look up and state reported pIC50 for COc1ccc2c(c1)NC(=O)[C@]21[C@H](C=C(C)C)N2C(=O)[C@@H]3CCCN3C(=O)[C@]2(O)[C@H]1O
Result: 4.85

====

test system: ECV-304; assay: Cytotoxicity against human ECV-304 cells; assay type: functional, cell-based
OBSERVABLE: IC50 (nM)
Numbers only, in nM.

Request: Supply IC50 value. Item: COc1cc2c(cc1O)CCN[C@@]21CS[C@@H]2c3c(OC(C)=O)c(C)c4c(c3[C@H](COC1=O)N1[C@@H]2[C@H]2c3c(cc(C)c(OC)c3O)C[C@@H]([C@@H]1O)N2C)OCO4
Result: 1.6

====

tested on: A549; experiment: Cytotoxicity against human A549 cells assessed as inhibition of cell growth; type: functional, cell-based
For each of the compounds below, state its IC50.
Numbers only, in ng/mL.

Record excerpt, results attached:
COMPOUND STRUCTURE	TARGET OF ASSAY	IC50 / ng/mL
COc1cc2c(cc1O)CCN[C@@]21CS[C@@H]2c3c(OC(C)=O)c(C)c4c(c3[C@H](COC1=O)N1[C@@H]2[C@@H]2N[C@@H](Cc3cc(C)c(OC)c(O)c32)[C@@H]1O)OCO4	A549	0.2
COc1c(C)cc2c(c1O)[C@H]1[C@@H]3[C@@H]4SCC(=O)C(=O)OC[C@@H](c5c6c(c(C)c(OC(C)=O)c54)OCO6)N3[C@@H](O)[C@@H](C2)N1C	A549	20
COc1cc2c(cc1O)CCN[C@@]21CS[C@@H]2c3c(OC(C)=O)c(C)c4c(c3[C@H](COC1=O)N1[C@@H]2[C@H]2c3c(cc(C)c(OC)c3O)C[C@@H]([C@@H]1O)N2C)OCO4	A549	0.2

# batch size: 2; output IC50 per entry
1. COc1c(C)cc2c(c1O)[C@@H]1N[C@H](C2)[C@H](O)N2[C@H]1[C@@H]1SC[C@H](N)C(=O)OC[C@H]2c2c(O)c(OC)c(C)c(OC(C)=O)c21
2. COc1c(C)cc2c(c1O)[C@H]1[C@@H]3[C@@H]4SC[C@H](N)C(=O)OC[C@@H](c5c(O)c(OC)c(C)c(OC(C)=O)c54)N3[C@@H](O)[C@@H](C2)N1C

Result:
10
2

====

system: Bel-7402; assay: Cytotoxicity against human Bel-7402 cells assessed as reduction in cell viability measured for 48 hrs by MTT assay; type: functional, cell-based; details: Bel-7402, 48 h
OBSERVABLE: pIC50
Numbers only, as −log10 of the molar value.

Some solved entries appear below for comparison.
COMPOUND STRUCTURE	MEASUREMENT
C=C(C)[C@@H](O)Cn1c2c(c3ccc(OC)cc31)[C@H](O)[C@@]1(O)C(=O)N3CCC[C@H]3C(=O)N1[C@H]2C=C(C)C	5.15
COc1ccc2c(c1)N(CC=C(C)C)C(=O)[C@]21[C@H](C=C(C)C)N2C(=O)[C@@H]3CCCN3C(=O)[C@]2(O)[C@H]1O	4.16

Note: attention shifts to another entry.
Request: With Bel-7402 as the test system, provide measured pIC50 for this compound: COc1ccc2c(c1)N(CC=C(C)C)C(=O)[C@]21[C@H](C=C(C)C)N2C(=O)[C@]3(O)CCCN3C(=O)[C@]2(O)[C@H]1O
Result: 4.76

====

test: Cytotoxicity against Sf9 cells assessed as inhibition of cell growth measured after 24 hrs by MTT assay; format: toxicity, cell-based; details: Spodoptera frugiperda
OBSERVABLE: IC50 at 24 h (nM)
Numbers only, in nM.

Request: Look up and state reported IC50 at 24 h for CS[C@@]1(Cc2ccccc2)NC(=O)[C@](O)(Cc2ccccc2)NC1=O
Result: 700

====

Please respond with reported pIC50 for every item in the list.
test: Cytotoxicity against human AML1 cells expressing FLT3-ITD mutant assessed as cell viability; type: functional, cell-based
Answers are plain numbers, as −log10 of the molar value.

COMPOUND STRUCTURE	OBSERVABLE	MEASUREMENT
CC(C)=CCc1[nH]cnc1/C=C1\NC(=O)CNC1=O	pIC50	6.66
CC1(C)C=Cc2c(ccc3c2N[C@@]24N5C(=O)[C@@H]6CCCN6C(=O)[C@]5(O)C[C@@]32O[C@H](CO)C4(C)C)O1	pIC50	5.14

Kindly consider the entry below.
Request: Return pIC50 (reported value) for this compound: CC1(C)C=Cc2c(ccc3c2N[C@@]24N5C(=O)[C@]6(O)CCCN6C(=O)[C@]5(O)C[C@@]32O[C@H](CO)C4(C)C)O1
Result: 5.00

====

test system: MOLT-4; experiment: Cytotoxicity against human MOLT-4 cells assessed as reduction in cell viability by MTT assay; format: functional, cell-based
OBSERVABLE: pIC50
One number for each entry, as −log10 of the molar value.

Solved cases below.
COMPOUND STRUCTURE	pIC50
COc1ccc2c(c1)N(CC=C(C)C)C(=O)[C@]21[C@H](C=C(C)C)N2C(=O)[C@]3(O)CCCN3C(=O)[C@]2(O)[C@H]1O	4.59
COc1ccc2c(c1)N(/C=C/C(C)(C)OO)C(=O)[C@]21[C@H](C=C(C)C)N2C(=O)[C@@H]3CCCN3C(=O)[C@]2(O)[C@H]1O	5.51
C=C(C)[C@@H](O)Cn1c2c(c3ccc(OC)cc31)[C@H](O)[C@@]1(O)C(=O)N3CCC[C@H]3C(=O)N1[C@H]2C=C(C)C	4.96

Provide each entry's pIC50 from the list below.
1. COc1ccc2c(c1)N(CC=C(C)C)C(=O)[C@]21[C@H](C=C(C)C)N2C(=O)[C@@H]3CCCN3C(=O)[C@]2(O)[C@H]1O
2. COc1ccc2c3c(n(CC=C(C)C)c2c1)[C@H](C=C(C)C)N1C(=O)[C@@H]2CCCN2C(=O)[C@]1(O)C3=O
3. C=C(C)[C@H](O)Cn1c2c(c3ccc(OC)cc31)[C@H](O)[C@@]1(O)C(=O)N3CCC[C@H]3C(=O)N1[C@H]2C=C(C)C

Result:
1. 4.59
2. 4.59
3. 4.96
